experiment: protein stability index of a GFP-peptide fusion (GPS, HEK-293T) (PSI 1-6); higher = more stable; settings: treatment: MLN4924 1 uM, 8 h; c terminus: a fixed tail appended;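 also: 24-mer peptide tiles fused after GFP, lentivirally expressed, FACS-sorted into six equal bins by GFP/DsRed ratio, decoded by Illumina sequencing, PSI is the read-weighted mean bin number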

Query sequence	protein stability index
FPGPQEHTQVLPDVRLLPRRLPLA [DYRK1B]	3.58
ILCNKTAYQEVFKPENISLRNKLR [SMG5]	2.77
ASTSTPSSTLVRPIRSRRALPPLR [FAM189A2]	4.21
RFRDFVDALEDSLEEVAVQQTGDD [PBXIP1]	4.9
FRGFPPEDLMPLAAAYGHALEQYE [P3H4]	3.08
GLERRDWSPSPPATPEQGLSAFYL [SPDEF]	2.84
PKPSGLEPGPAAYGLKPLTPNSKY [KCTD13]	4.22
LVTGLAIEEACYAQTIPTKDRLEG [AUH]	3.13
SSQGVATPAITVSNSCPAELPNIK [TFE3]	4.96
LGNGNDKKEMNKSDLNTNNLLFKP [KMT2E]	4.34
VCYFTNWAQYRQGEARFLPKDLDP [CHIT1]	2.34
HGPGHETPMTIPEFFRESVNRFGT [ACSBG2]	3.6
AAFQTILTEIYRIVSQKQMSDRRE [RAB11A]	2.52
IERMKQIYQQLSRYRGLGLLASVP [CRY1]	2.36
MWPPDPDPDPDPEPAGGSRPGPAV [CMTM3]	5.12
EVKLLLSSETPIEGKNMSFVNDLT [APMAP]	3.56
NPQSPPQDSSVTSKRNIKKGAVPR [HDAC6]	5.14
FRPYFTIHDSEFKEYTTRTQAPPS [DENND6A]	2.71
NGSCENSDASSHANAAKHTQDSAR [EHMT1]	5.3
VLGEDVIVNDELYLNGASVLPHKS [GMPPB]	4.31
IYSVVDLGMYQKVTSYCRSATLVG [SLC19A2]	2.74
EAVTCGNTEVPARNLYAYIQKLTQ [PTPRD]	2.96
PGEEKFENLEGVPSVCSENIHPQV [ZNF263]	4.96
TEPLTHWYQVRCLFQSPLFAKAGD [CARM1]	2.15
PSNRSFFSEIISSISDVKFSHSGR [PPP2R2B]	2.78
DEISDHAKVLTLSDDLERTIEERV [EIF5]	5.44
AAAAAAASAAAATAAFTTAKAAAL [SPAG8]	2.62
ALRNLPPLRAAHRRFNFDTDRPLL [SMG5]	2.85
YEAQDGRGPDNALLEATGGAAGRS [KCTD10]	5.41
YQRNLPRPGQAPIGNPPVGPIGGM [ZNF207]	3.31
VPPKDSAPKDSAPQDLAPQVSAHH [TBC1D10A]	5.4
PVFLHSQMLWELVLLGEPLVVMAP [DENND6A]	2.98
EFRRWRDTGVAFELRDSSAYHVPN [DNAAF3]	3
SRSPSVEGSLWAVGTESQGRDWRH [PXN]	4.05
LEAEIATYRRLLEDGEDFNLGDAL [KRT18]	4.53
MTELRQRVAHEPVAPPEDKESESE [CDS2]	5.44
LTRKGLVRVVFFPLFSNWWIQVTS [PHTF1]	2.81
KSSVYRRYNDFVVFQEMLLHKFPY [SNX8]	2.24
PLMQGPRTRPRKPIRCGEVLFAVG [KLHL20]	1.92
KQLVSPAAALLSNTTCQTENRLSV [PTGFR]	3.99
YTAQQDQELDIKKNERLWLLDDSK [NCK2]	4.65
ELADHIERLKANDNLKFSQEYESI [PTPRD]	3.74
AVQHFYNIKLEGKVPMHKLFLEML [ESRRG]	2.23
NHMYSCRFSRQCVVDKDKRNQCRY [HNF4A]	2.56
ETLDYGKNYNYGMHYCAVPPRGPL [NEUROD6]	2.68
TEELIVQTKQVYDAVGMLGIEEVT [NLN]	4.1
KICESLNVPVDDSLVKELLRMCSH [EFHC1]	2.09
RAVRQSVTSFPDADAFHHQVHDDD [EMD]	5.31
RGIHNIQKRYHCKECGKVFSQSAG [ZSCAN9]	2.78
HLSSQQASGQSYSSREVFTSSSSS [KRT16]	4.58
SPGELEEDLLLPGACPGADEAGGG [WEE1]	5.5
MEHQLLCCEVETIRRAYPDANLLN [CCND1]	2.87
SEYRSDIINAKSNDGWTPLHVAAH [ASB7]	3.27
